These data points were gathered from ChEMBL document CHEMBL5528028.

# assay: Tmax in mouse at 10 mg/kg, iv
# Format: ADME, organism-based
# measurementSetup: in vivo
metricName: Tmax (min)
Give just the number in min; leave the unit off.

Let me know recorded Tmax for CCCCCCCCn1cc(C(=O)OCC)c(=O)c2cc(F)c([C-](C#N)C(=O)OCC)cc21.[Na+] (stereo unspecified) , thanks.
1.98

---

Listing: MIC of selected molecules
# Tested on: Staphylococcus aureus
# assay: Antibacterial activity against Staphylococcus aureus ATCC 25923 assessed growth inhibition by micro broth dilution method
# Format: functional
Give just the number in µg/mL; leave the unit off.

Below, each entry is followed by its recorded MIC result.
INSERT INTO assay_data (molecule, metricname, uom, reportedmeasurement) VALUES
  ('CCOC(=O)C(C#N)c1c(F)cc2c(=O)c(C(=O)O)cn(CC)c2c1F (centres undefined)', 'MIC', 'µg/mL', 32),
  ('CCOC(=O)c1cn(CCN2CCOCC2)c2cc(F)c(F)cc2c1=O', 'MIC', 'µg/mL', 256),
  ('CCOC(=O)c1cn(CC(=O)N2CCN(C(=O)OC(C)(C)C)CC2)c2cc([C-](C#N)C(=O)OCC)c(F)cc2c1=O.[Na+] (centres undefined)', 'MIC', 'µg/mL', 16),
  ('C#CCn1cc(C(=O)OCC)c(=O)c2cc(F)c(F)cc21', 'MIC', 'µg/mL', 256),
  ('CCOC(=O)c1cn(Cc2ccccc2)c2cc(C(C#N)C(=O)OCC)c(F)cc2c1=O (centres undefined)', 'MIC', 'µg/mL', 2),
  ('CCOC(=O)c1cn(Cc2cccc(Cl)c2)c2cc(F)c(F)cc2c1=O', 'MIC', 'µg/mL', 64);

Look up Staphylococcus aureus data: MIC of CCOC(=O)c1cn(CCN2CCOCC2)c2cc([C-](C#N)C(=O)OCC)c(F)cc2c1=O.[Na+] (centres undefined) , then report it.
256

Look up Staphylococcus aureus data: MIC of CCOC(=O)c1cn(CC2CCCCC2)c2cc(F)c(F)cc2c1=O , then report it.
2

Look up Staphylococcus aureus data: MIC of CCOC(=O)C(C#N)c1cc2c(cc1F)c(=O)c(C(=O)O)cn2Cc1ccc(Cl)c(Cl)c1 (centres undefined) , then report it.
32
